Exercise: state measured IC50 for each of the molecules provided.
Molecular target: DRB1*0301 (Homo sapiens, UniProt P01903+P01911, A100K/A102G/A103R/A169T/F55Y/I96L/K41T/L162R/M171V/P40S/Q125H/Q178H/Q39Y/R42S/S66N/T106N/T262R/W38E/Y61H)
Sequence (P01903 26-254 limits assumed, other chains not shown): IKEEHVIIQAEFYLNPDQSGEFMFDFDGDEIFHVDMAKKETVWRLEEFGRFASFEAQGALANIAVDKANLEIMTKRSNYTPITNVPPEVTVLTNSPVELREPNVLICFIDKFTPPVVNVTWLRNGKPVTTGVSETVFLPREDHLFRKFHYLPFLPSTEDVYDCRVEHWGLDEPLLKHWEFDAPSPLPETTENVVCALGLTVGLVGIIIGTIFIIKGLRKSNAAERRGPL
Assay: biochemical

Could you share which IC50 value was measured for CSCC[C@H](NC(=O)[C@H](Cc1ccc(O)cc1)NC(=O)[C@H](Cc1ccc(O)cc1)NC(=O)[C@@H](NC(=O)[C@@H](N)CO)C(C)C)C(=O)N[C@H](C(=O)N[C@@H](CC(=O)O)C(=O)N[C@@H](C)C(=O)NCC(=O)N[C@H](C(=O)N[C@@H](Cc1c[nH]c2ccccc12)C(=O)N[C@@H](CC(=O)O)C(=O)N[C@@H](CCCCN)C(=O)N[C@H](C(=O)N[C@@H](C)C(=O)O)[C@@H](C)O)[C@@H](C)O)[C@@H](C)O [Peptide 90.0182] ?
0.328 µM

Could you share which IC50 value was measured for CC(C)C[C@H](NC(=O)[C@@H](NC(=O)[C@H](CCC(=O)O)NC(=O)[C@H](C)NC(=O)[C@H](C)NC(=O)[C@H](C)NC(=O)[C@H](CCC(N)=O)NC(=O)[C@@H](NC(=O)[C@@H](NC(=O)[C@H](Cc1ccccc1)NC(=O)[C@H](C)NC(=O)[C@H](C)NC(=O)[C@@H](N)C(C)C)[C@@H](C)O)C(C)C)[C@@H](C)O)C(=O)N[C@@H](CO)C(=O)N[C@@H](CCC(=O)O)C(=O)O [Peptide 68.0136] ?
> 20 µM

Could you share which IC50 value was measured for CC[C@H](C)[C@H](NC(=O)[C@H](Cc1c[nH]c2ccccc12)NC(=O)[C@H](CCCCN)NC(=O)[C@H](CCCNC(=N)N)NC(=O)[C@H](Cc1ccc(O)cc1)NC(=O)[C@H](Cc1c[nH]cn1)NC(=O)[C@@H](NC(=O)[C@@H](NC(=O)[C@H](CCCCN)NC(=O)[C@@H](NC(=O)[C@H](Cc1ccc(O)cc1)NC(=O)[C@H](CC(C)C)NC(=O)[C@H](CO)NC(=O)[C@@H]1CCCN1C(=O)[C@@H](N)CCCNC(=N)N)[C@@H](C)O)C(C)C)C(C)C)C(=O)O [Peptide 68.0082] ?
> 20 µM

Could you share which IC50 value was measured for CC[C@H](C)[C@H](NC(=O)[C@H](CO)NC(=O)[C@@H](NC(=O)CN)C(C)C)C(=O)N[C@@H](Cc1c[nH]c2ccccc12)C(=O)N[C@@H](CC(N)=O)C(=O)N1CCC[C@H]1C(=O)N[C@H](C(=O)N[C@@H](CC(C)C)C(=O)N[C@@H](CC(C)C)C(=O)N[C@@H](Cc1c[nH]c2ccccc12)C(=O)N[C@@H](CCC(N)=O)C(=O)N1CCC[C@H]1C(=O)N[C@H](C(=O)N1CCC[C@H]1C(=O)O)[C@@H](C)CC)[C@@H](C)CC [Peptide 68.0034] ?
> 20 µM

Could you share which IC50 value was measured for CC[C@H](C)[C@H](NC(=O)[C@@H](NC(=O)[C@@H]1CCCN1C(=O)[C@H](Cc1ccccc1)NC(=O)[C@H](Cc1ccccc1)NC(=O)[C@H](Cc1ccc(O)cc1)NC(=O)[C@H](CCC(N)=O)NC(=O)[C@H](Cc1c[nH]c2ccccc12)NC(=O)[C@H](CC(N)=O)NC(=O)CNC(=O)[C@@H](N)C(C)C)C(C)C)C(=O)N[C@@H](Cc1ccccc1)C(=O)N[C@@H](CO)C(=O)N[C@@H](CCCCN)C(=O)N[C@@H](C)C(=O)O [Peptide 58.0114] ?
0.0041 µM

Could you share which IC50 value was measured for CC[C@H](C)[C@H](NC(=O)CNC(=O)[C@H](Cc1ccc(O)cc1)NC(=O)[C@H](CC(C)C)NC(=O)[C@H](CO)NC(=O)[C@H](CC(C)C)NC(=O)[C@H](CC(C)C)NC(=O)[C@H](CO)NC(=O)[C@@H](N)CC(C)C)C(=O)N[C@@H](Cc1c[nH]cn1)C(=O)N[C@@H](CCCCN)C(=O)N[C@@H](CCC(N)=O)C(=O)N[C@@H](CCCCN)C(=O)N[C@@H](CCC(=O)O)C(=O)N[C@@H](CCCCN)C(=O)O [Peptide 68.0045] ?
> 20 µM
